molecular target: Human PD-L1/PD-1 (Homo sapiens, UniProt Q9NZQ7); construct: made in house; host or cells: HEK293T; experiment: HTRF PD-1-Ig/PD-L1-His binding assay (human PD-L1); details: cluster symbol; read-out: HTRF IC50 cluster
Sequence (Q9NZQ7 with tags, fused parts or gaps): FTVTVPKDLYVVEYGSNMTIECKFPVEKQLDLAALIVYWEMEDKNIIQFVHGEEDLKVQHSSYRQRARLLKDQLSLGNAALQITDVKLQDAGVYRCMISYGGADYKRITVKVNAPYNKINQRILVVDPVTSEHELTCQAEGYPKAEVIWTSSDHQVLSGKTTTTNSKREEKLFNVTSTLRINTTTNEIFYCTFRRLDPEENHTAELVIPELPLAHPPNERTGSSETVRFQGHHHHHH
Positions of bridges follow the written chain, without caps; N, C: chain ends. Non-standard residues stand in square brackets, D forms with d. Residues, ends and D or L forms follow the SMILES beside them. ξ: configuration not given here. Phe(4-CH2NH2) = NCc1ccc(C[C@H](N)C(=O)O)cc1; Phe(4-Cl) = N[C@@H](Cc1ccc(Cl)cc1)C(=O)O; Pro(4R-NH2) = N[C@H]1CN[C@H](C(=O)O)C1; d(cisHyp) = O=C(O)[C@H]1C[C@@H](O)CN1; NMeF = CN[C@@H](Cc1ccccc1)C(=O)O; dNMeNle = CCCC[C@@H](NC)C(=O)O; NMeNle = CCCC[C@H](NC)C(=O)O; NMeM = CN[C@@H](CCSC)C(=O)O; NMeA = CN[C@@H](C)C(=O)O; dDap = NC[C@@H](N)C(=O)O; Dab = NCC[C@H](N)C(=O)O; Dap = NC[C@H](N)C(=O)O; ξP = O=C(O)C1CCCN1; ξC = NC(CS)C(=O)O; Sar = CNCC(=O)O
Below, each entry is listed with its recorded IC50.

Here are 5 compounds together with their reported answers.
COMPOUND	IC50
CCCC[C@H]1C(=O)N(C)CC(=O)N[C@@H](CC(=O)O)C(=O)N[C@@H](C(C)C)C(=O)N(C)[C@@H](Cc2ccccc2)C(=O)N[C@@H](Cc2ccc(O)cc2)C(=O)N(C)CC(=O)N[C@@H](Cc2c[nH]c3ccccc23)C(=O)N[C@@H](Cc2ccc(O)cc2)C(=O)N[C@@H](CC(C)C)C(=O)N[C@H](C(=O)NCC(N)=O)CSCC(=O)N[C@@H](Cc2ccc(CN)cc2)C(=O)N(C)[C@@H](Cc2ccccc2)C(=O)N1C [Example 3063] ({CH2CO}-[Phe(4-CH2NH2)][NMeF][NMeNle][Sar]DV[NMeF]Y[Sar]WYLCG-NH2; thioether N-13)	> 30.5 nM
CCCC[C@H]1C(=O)N2C[C@H](O)C[C@@H]2C(=O)N[C@@H](CC(=O)O)C(=O)N[C@@H](C(C)C)C(=O)N(C)[C@@H](Cc2ccccc2)C(=O)N[C@@H](Cc2ccc(O)cc2)C(=O)N(C)CC(=O)N[C@@H](Cc2c[nH]c3ccccc23)C(=O)N[C@@H](Cc2ccc(O)cc2)C(=O)N[C@@H](CC(C)C)C(=O)N[C@H](C(=O)NCC(N)=O)CSCC(=O)N[C@@H](Cc2ccccc2)C(=O)N(C)[C@@H](Cc2ccccc2)C(=O)N1C [Example 3575] ({CH2CO}-F[NMeF][NMeNle][d(cisHyp)]DV[NMeF]Y[Sar]WYLCG-NH2; thioether N-13)	0.385 to 6.74 nM
CCCC[C@H]1C(=O)N(C)[C@@H](CCSC)C(=O)N[C@@H](CCCNC(=N)N)C(=O)NC(C(=O)NCC(N)=O)CSCC(=O)N[C@@H](Cc2ccc(O)cc2)C(=O)N(C)[C@@H](C)C(=O)N[C@@H](CC(N)=O)C(=O)N2CCC[C@H]2C(=O)N[C@@H](Cc2cnc[nH]2)C(=O)N[C@@H](CO)C(=O)N2CCC[C@H]2C(=O)N[C@@H](Cc2c[nH]c3ccccc23)C(=O)N[C@@H](CO)C(=O)N[C@@H](Cc2c[nH]c3ccccc23)C(=O)N1C (some centres unmarked) [Example 9105] ({CH2CO}-Y[NMeA]NPHSPWSW[NMeNle][NMeM]R[ξC]G-NH2; thioether N-14)	0.385 to 6.74 nM
CCCC[C@H]1C(=O)N(C)CC(=O)N[C@@H](CC(=O)O)C(=O)N[C@@H](C(C)C)C(=O)N(C)[C@@H](Cc2ccccc2)C(=O)N[C@@H](Cc2ccc(O)cc2)C(=O)N(C)CC(=O)N[C@@H](Cc2c[nH]c3ccccc23)C(=O)N[C@@H](Cc2ccc(O)cc2)C(=O)N[C@@H](CC(C)C)C(=O)N[C@H](C(=O)NCC(N)=O)CSCC(=O)N[C@@H](Cc2ccc(Cl)cc2)C(=O)N(C)[C@@H](Cc2ccccc2)C(=O)N1C [Example 3067] ({CH2CO}-[Phe(4-Cl)][NMeF][NMeNle][Sar]DV[NMeF]Y[Sar]WYLCG-NH2; thioether N-13)	0.385 to 6.74 nM
CCCC[C@H]1C(=O)N(C)[C@@H](CO)C(=O)N[C@@H](CCCNC(=N)N)C(=O)NC(C(=O)NCC(N)=O)CSCC(=O)N[C@@H](Cc2ccc(O)cc2)C(=O)N(C)[C@@H](C)C(=O)N[C@@H](CC(N)=O)C(=O)N2CCC[C@H]2C(=O)N[C@@H](Cc2cnc[nH]2)C(=O)N[C@@H](CC(C)C)C(=O)N2C[C@H](O)C[C@H]2C(=O)N[C@@H](Cc2c[nH]c3ccccc23)C(=O)N[C@@H](CO)C(=O)N[C@@H](Cc2c[nH]c3ccccc23)C(=O)N1C (some centres unmarked)	6.76 to 30.3 nM

Query: Record request: IC50 value, item CCCC[C@@H]1C(=O)N(C)[C@H](CCCC)C(=O)N[C@@H](C)C(=O)N[C@@H](C(=O)NCC(N)=O)CSCC(=O)N[C@@H](Cc2ccc(O)cc2)C(=O)N2CCCC2C(=O)N[C@H](CC(=O)O)C(=O)N2CCC[C@H]2C(=O)N[C@H](CN)C(=O)N[C@@H](CCC(N)=O)C(=O)N2CCCC2C(=O)N[C@H](Cc2c[nH]c3ccccc23)C(=O)N[C@@H](CCN)C(=O)N[C@@H](Cc2c[nH]c3ccccc23)C(=O)N1C (some centres unmarked) [Example 1208] ({CH2CO}-Y[ξP][dD]P[dDap]Q[ξP][dW][Dab]W[dNMeNle][dNMeNle]A[dC]G-NH2; thioether N-14)
Result: 0.385 to 6.74 nM

Query: Try this compound next: CCCC[C@H]1C(=O)N(C)CC(=O)N[C@@H](CC(=O)O)C(=O)N[C@@H](C(C)C)C(=O)N(C)[C@@H](Cc2ccccc2)C(=O)N[C@@H](Cc2ccc(O)cc2)C(=O)N(C)CC(=O)N[C@@H](Cc2c[nH]c3ccccc23)C(=O)N[C@@H](Cc2ccc(O)cc2)C(=O)N[C@@H](CN)C(=O)N[C@H](C(=O)NCC(N)=O)CSCC(=O)N[C@@H](Cc2ccccc2)C(=O)N(C)[C@@H](Cc2ccccc2)C(=O)N1C [Example 3161] ({CH2CO}-F[NMeF][NMeNle][Sar]DV[NMeF]Y[Sar]WY[Dap]CG-NH2; thioether N-13)
Result: 6.76 to 30.3 nM

Query: Same again, this time with CCCC[C@H]1C(=O)N(C)CC(=O)N[C@@H](CC(=O)O)C(=O)N[C@@H](C(C)C)C(=O)N(C)[C@@H](Cc2ccccc2)C(=O)N2C[C@H](N)C[C@H]2C(=O)N2CCC[C@@H]2C(=O)N[C@@H](Cc2c[nH]c3ccccc23)C(=O)N[C@@H](Cc2ccc(O)cc2)C(=O)N[C@@H](CC(C)C)C(=O)N[C@H](C(=O)NCC(N)=O)CSCC(=O)N[C@@H](Cc2ccccc2)C(=O)N(C)[C@@H](Cc2ccccc2)C(=O)N1C [Example 3178] ({CH2CO}-F[NMeF][NMeNle][Sar]DV[NMeF][Pro(4R-NH2)][dP]WYLCG-NH2; thioether N-13)
Result: 6.76 to 30.3 nM
